All figures here come from patent US9346809B2.

# target_or_system: JAK1 (aa 850-1154, catalytic domain, GST-tag) (Homo sapiens, UniProt P23458)
# Construct: JAK1 (aa 850-1154) and TYK2 (aa 871-1187) are expressed with an N-terminally fused GST-tag; GST (N); purchased Carna Biosciences, Inc; host or cells: baculovirus expression system
# Sequence (P23458 850-1154): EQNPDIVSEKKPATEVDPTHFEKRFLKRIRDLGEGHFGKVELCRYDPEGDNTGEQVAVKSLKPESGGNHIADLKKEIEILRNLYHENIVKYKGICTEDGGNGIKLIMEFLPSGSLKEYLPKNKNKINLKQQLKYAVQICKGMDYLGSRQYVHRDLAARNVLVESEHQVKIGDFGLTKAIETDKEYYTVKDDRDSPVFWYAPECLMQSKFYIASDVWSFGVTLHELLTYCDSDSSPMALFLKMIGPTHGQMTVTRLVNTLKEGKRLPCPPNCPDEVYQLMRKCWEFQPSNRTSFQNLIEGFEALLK
# protocol_summary: JAK kinase assay (HTRF, phosphorylation of TK substrate-biotin), JAK1
# Assay type: biochemical
# study_conditions: HTRF assay, ATP at Km (7 μM); read-out: JAK1 kinase inhibitory activity (EC50 indicator)
endpoint_label: EC50

# annotated cases, reported EC50 shown
{"smiles_code": "NS(=O)(=O)c1ccc(C(=O)NCC(=O)N2CCN(c3ncnc4[nH]ccc34)CC23CC3)cc1", "target_or_system": "JAK1 (aa 850-1154, catalytic domain, GST-tag) (Homo sapiens, UniProt P23458)", "result": "< 100 nM"}
{"smiles_code": "O=C(c1cccc2[nH]ccc12)N1[C@@H]2CC[C@H]1CN(c1ncnc3[nH]ccc13)C2", "target_or_system": "JAK1 (aa 850-1154, catalytic domain, GST-tag) (Homo sapiens, UniProt P23458)", "result": "100 to 500 nM"}
{"smiles_code": "COC(=O)c1cc2c(N3CCN(C(=O)CCCC#N)C4(CC4)C3)ncnc2[nH]1", "target_or_system": "JAK1 (aa 850-1154, catalytic domain, GST-tag) (Homo sapiens, UniProt P23458)", "result": "> 500 nM"}
{"smiles_code": "CS(=O)(=O)c1ccc(C(=O)N2CCN(c3ncnc4[nH]ccc34)CC23CC3)c(Cl)c1", "target_or_system": "JAK1 (aa 850-1154, catalytic domain, GST-tag) (Homo sapiens, UniProt P23458)", "result": "< 100 nM"}
{"smiles_code": "N#Cc1ccccc1CC(=O)N1[C@@H]2CC[C@@H]1CN(c1ncnc3[nH]ccc13)C2", "target_or_system": "JAK1 (aa 850-1154, catalytic domain, GST-tag) (Homo sapiens, UniProt P23458)", "result": "100 to 500 nM"}
{"smiles_code": "O=C(Cc1ccc(C(F)(F)F)cc1)N1[C@@H]2CC[C@@H]1CN(c1ncnc3[nH]ccc13)C2", "target_or_system": "JAK1 (aa 850-1154, catalytic domain, GST-tag) (Homo sapiens, UniProt P23458)", "result": "100 to 500 nM"}
{"smiles_code": "NS(=O)(=O)c1ccc(OCC(=O)N2CCN(c3ncnc4[nH]ccc34)CC23CC3)cc1", "target_or_system": "JAK1 (aa 850-1154, catalytic domain, GST-tag) (Homo sapiens, UniProt P23458)", "result": "< 100 nM"}

As a next step, examine the compound that follows.
Task: Give EC50 for "N#Cc1cccc(C(=O)N2CCN(c3nc(N)nc4[nH]ccc34)CC23CC3)c1"
Output: < 100 nM

----------
# target_or_system: TYK2 (aa 871-1187, catalytic domain, GST-tag) (Homo sapiens, UniProt P29597)
# Construct: JAK1 (aa 850-1154) and TYK2 (aa 871-1187) are expressed with an N-terminally fused GST-tag; GST (N); purchased Carna Biosciences, Inc; host or cells: baculovirus expression system
# Sequence (P29597 871-1187): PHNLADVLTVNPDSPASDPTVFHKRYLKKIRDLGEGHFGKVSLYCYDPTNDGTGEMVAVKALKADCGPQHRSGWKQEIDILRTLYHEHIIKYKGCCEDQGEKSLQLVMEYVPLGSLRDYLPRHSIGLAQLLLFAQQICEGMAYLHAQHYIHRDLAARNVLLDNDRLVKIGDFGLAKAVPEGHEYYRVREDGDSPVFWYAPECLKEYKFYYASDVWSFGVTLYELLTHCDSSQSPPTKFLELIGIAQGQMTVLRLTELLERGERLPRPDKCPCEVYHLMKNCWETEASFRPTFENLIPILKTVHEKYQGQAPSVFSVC
# protocol_summary: JAK kinase assay (HTRF, phosphorylation of TK substrate-biotin), TYK2
# Format: biochemical
# study_conditions: ATP at Km (13 μM); read-out: TYK2 kinase inhibitory activity (EC50 indicator)
// reported EC50 for each item listed

{"compound": "O=C(c1cccnc1)N1[C@@H]2CC[C@H]1CN(c1ncnc3[nH]ccc13)C2 [Example 57]", "result": "> 500 nM"}
{"compound": "NS(=O)(=O)c1cc(OCC(=O)N2CCN(c3ncnc4[nH]ccc34)CC23CC3)ccc1Cl [Example 102]", "result": "100 to 500 nM"}
{"compound": "CCOC(=O)NC(=S)N1[C@@H]2CC[C@H]1CN(c1ncnc3[nH]ccc13)C2 [Example 29]", "result": "> 500 nM"}
{"compound": "N#Cc1cc(CC(=O)N2CCN(c3ncnc4[nH]ccc34)CC23CC3)ccc1F [Example 66]", "result": "> 500 nM"}
{"compound": "O=C(C1CCOC1)N1CCN(c2ncnc3[nH]ccc23)CC12CC2 (centres unmarked) [Example 7]", "result": "> 500 nM"}

Attention now shifts to the item below.
Task: Using known records, supply EC50 for O=C(c1ccc2[nH]ccc2c1)N1CCN(c2ncnc3[nH]ccc23)CC12CC2 [Example 157]
Output: 100 to 500 nM
